Entries with their measured IC50, system bovine lens aldose reductase (Bos taurus):
PROPERTY MEASURED: IC50

In [3]: df
Out[3]:
                                   molecule  test_result
0  O=C(O)c1cc(C(=O)O)c2c(n1)c(O)c(O)c1cc(C(=O)O)[nH]c12 [PQQ.H2, PQQ reduced form]         5 µM
1  COC(=O)c1cc(C(=O)OC)c2c(n1)C(=O)C(=O)c1cc(C(=O)OC)[nH]c1-2 [PQQ.3Me, PQQ trimethyl ester]       4.2 µM
